Listed substances paired with reported pEC50
TARGET_OF_ASSAY: rat NMUR1-ATG (Rattus norvegicus)
Sequence (Q9JJI5 1-425): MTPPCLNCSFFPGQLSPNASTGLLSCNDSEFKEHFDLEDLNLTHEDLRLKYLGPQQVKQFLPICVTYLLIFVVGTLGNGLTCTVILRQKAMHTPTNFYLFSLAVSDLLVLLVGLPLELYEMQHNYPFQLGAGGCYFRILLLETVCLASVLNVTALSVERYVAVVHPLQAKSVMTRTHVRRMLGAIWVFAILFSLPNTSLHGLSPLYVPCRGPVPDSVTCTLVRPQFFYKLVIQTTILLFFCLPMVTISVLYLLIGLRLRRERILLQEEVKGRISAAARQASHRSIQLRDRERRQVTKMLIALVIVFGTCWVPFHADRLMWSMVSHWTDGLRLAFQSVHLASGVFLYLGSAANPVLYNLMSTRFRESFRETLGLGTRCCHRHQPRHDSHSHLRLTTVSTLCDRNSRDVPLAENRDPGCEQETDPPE
EXPERIMENTAL_DETAILS: FLIPR calcium mobilization assay, rat NMUR1-ATG
Format: cell-based
Parameters: expressed in transfected cells; host or cells: FLP-In CHO or HEK-293 FLP-In cells (pcDNA5)
CONDITION_PARAMETERS: FLIPR, rat NMUR1-ATG
Method: […] After a 90 minute incubation at room-temperature, cell plates were loaded onto a FLIPR (Molecular Devices) to monitor cellular fluorescence (excitation=488 nm; emission=540 nm) before and after compound/peptide addition. […] The response after peptide addition was taken as the maximum fluorescence units minus the fluorescence immediately prior to stimulation for each well. EC50 values were calculated using GraphPad Prism (San Diego, Calif.) software. […]
pEC50: −log10 of the molar value. *: point of attachment. Palmitoyl = CCCCCCCCCCCCCCCC(=O)*
MEASURED_QUANTITY: pEC50

• Ac-C4FRVDEEFQSPFASQSRGYFLFRPRN-CONH2 ({Ac-C(PEG 20 kDa)}-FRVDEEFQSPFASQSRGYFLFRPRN-NH2) [NMU21, C4 = Cys(PEG)20 kDa] = 7.71
• Ac-C4-C4-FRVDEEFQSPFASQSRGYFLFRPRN-CONH2 ({Ac-C(PEG 20 kDa)-C(PEG 20 kDa)}-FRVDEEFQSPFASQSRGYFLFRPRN-NH2) [NMU23, C4 = Cys(PEG)20 kDa] = 6.89
• Ac-C2FQSPFASQSRGYFLFRPRN-CONH2 ({Ac-C(PEG 40 kDa)}-FQSPFASQSRGYFLFRPRN-NH2; not fully specified; printed as Ac-C2FQSPFASQSRGYFLFRPRN-CONH2) [NMU20, C2 = Cys(PEG)240 kDa] = 8.14
• Ac-C2FRVDEEFQSPFASQSRGYFLFRPRN-CONH2 [NMU9] ({Ac-C(PEG 40 kDa)}-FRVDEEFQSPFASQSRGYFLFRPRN-NH2) [C2 = Cys(PEG)240 kDa from Nektar (mPEG2-MAL-40 k)] = 8.01
• Pam-C2FRVDEEFQSPFASQSRGYFLFRPRN-CONH2 ({Palmitoyl-C(PEG 40 kDa)}-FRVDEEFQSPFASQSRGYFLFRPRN-NH2) [NMU25, Pam = palmitoyl; C2 = Cys(PEG)240 kDa] = 7.70

====

TARGET_OF_ASSAY: hNMUR1 (Homo sapiens, UniProt Q9HB89)
Sequence (Q9HB89 1-426): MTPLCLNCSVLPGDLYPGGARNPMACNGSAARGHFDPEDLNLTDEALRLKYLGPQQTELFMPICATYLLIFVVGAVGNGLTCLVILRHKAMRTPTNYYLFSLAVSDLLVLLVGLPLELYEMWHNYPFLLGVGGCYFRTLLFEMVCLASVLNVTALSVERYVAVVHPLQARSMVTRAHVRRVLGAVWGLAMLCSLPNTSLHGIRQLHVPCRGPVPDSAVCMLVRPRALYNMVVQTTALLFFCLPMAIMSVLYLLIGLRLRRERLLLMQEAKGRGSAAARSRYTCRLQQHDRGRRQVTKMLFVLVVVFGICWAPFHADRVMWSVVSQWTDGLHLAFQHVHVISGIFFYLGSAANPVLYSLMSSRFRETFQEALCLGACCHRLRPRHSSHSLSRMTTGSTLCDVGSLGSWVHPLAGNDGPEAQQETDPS
EXPERIMENTAL_DETAILS: FLIPR calcium mobilization assay, human NMUR1
Assay type: cell-based
Parameters: expressed in transfected cells; host or cells: FLP-In CHO or HEK-293 FLP-In cells (pcDNA5); HEK-293/aeq17 lines (pIRES-puro) were also made
CONDITION_PARAMETERS: FLIPR, human NMUR1
pEC50: −log10 of the molar value. *: point of attachment. Palmitoyl = CCCCCCCCCCCCCCCC(=O)*
# label = condition met if pEC50 >= 7 else condition not met

• Ac-C4FRVDEEFQSPFASQSRGYFLFRPRN-CONH2 ({Ac-C(PEG 20 kDa)}-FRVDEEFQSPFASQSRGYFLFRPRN-NH2) [NMU21, C4 = Cys(PEG)20 kDa] = condition met
• Ac-C2FQSPFASQSRGYFLFRPRN-CONH2 ({Ac-C(PEG 40 kDa)}-FQSPFASQSRGYFLFRPRN-NH2; not fully specified; printed as Ac-C2FQSPFASQSRGYFLFRPRN-CONH2) [NMU20, C2 = Cys(PEG)240 kDa] = condition met
• Ac-C4-C4-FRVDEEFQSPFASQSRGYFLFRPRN-CONH2 ({Ac-C(PEG 20 kDa)-C(PEG 20 kDa)}-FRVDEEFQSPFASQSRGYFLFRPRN-NH2) [NMU23, C4 = Cys(PEG)20 kDa] = condition not met
• Ac-C2FRVDEEFQSPFASQSRGYFLFRPRN-CONH2 [NMU9] ({Ac-C(PEG 40 kDa)}-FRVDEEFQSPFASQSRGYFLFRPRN-NH2) [C2 = Cys(PEG)240 kDa from Nektar (mPEG2-MAL-40 k)] = condition met
• Ac-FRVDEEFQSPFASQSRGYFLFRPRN-NH2 [NMU2] = condition met
• Pam-C2FRVDEEFQSPFASQSRGYFLFRPRN-CONH2 ({Palmitoyl-C(PEG 40 kDa)}-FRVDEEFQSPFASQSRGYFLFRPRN-NH2) [NMU25, Pam = palmitoyl; C2 = Cys(PEG)240 kDa] = condition not met

====

Each entry below carries its recorded pEC50.
TARGET_OF_ASSAY: Mouse NMUR1-CTG (Mus musculus)
Sequence (O55040 1-428): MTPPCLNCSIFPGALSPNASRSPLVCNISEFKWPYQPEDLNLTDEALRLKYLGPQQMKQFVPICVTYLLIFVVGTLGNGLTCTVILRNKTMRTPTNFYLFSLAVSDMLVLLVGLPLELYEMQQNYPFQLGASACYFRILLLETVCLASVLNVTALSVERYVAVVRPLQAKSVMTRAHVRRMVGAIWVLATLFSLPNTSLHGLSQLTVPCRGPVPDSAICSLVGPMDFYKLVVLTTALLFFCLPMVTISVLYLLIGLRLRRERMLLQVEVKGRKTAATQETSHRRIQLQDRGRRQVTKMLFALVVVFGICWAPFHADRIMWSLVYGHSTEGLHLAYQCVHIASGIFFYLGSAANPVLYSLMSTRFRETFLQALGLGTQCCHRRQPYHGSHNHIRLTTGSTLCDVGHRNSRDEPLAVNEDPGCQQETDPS
EXPERIMENTAL_DETAILS: FLIPR calcium mobilization assay, mouse NMUR1-CTG
Format: cell-based
Set-up: expressed in transfected cells; host or cells: FLP-In CHO or HEK-293 FLP-In cells (pcDNA5)
CONDITION_PARAMETERS: FLIPR, mouse NMUR1-CTG
pEC50: −log10 of the molar value. *: point of attachment. Palmitoyl = CCCCCCCCCCCCCCCC(=O)*
MEASURED_QUANTITY: pEC50

* Ac-C4FRVDEEFQSPFASQSRGYFLFRPRN-CONH2 ({Ac-C(PEG 20 kDa)}-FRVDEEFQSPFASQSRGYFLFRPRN-NH2) [NMU21, C4 = Cys(PEG)20 kDa] | 7.25
* Pam-C2FRVDEEFQSPFASQSRGYFLFRPRN-CONH2 ({Palmitoyl-C(PEG 40 kDa)}-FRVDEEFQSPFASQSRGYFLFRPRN-NH2) [NMU25, Pam = palmitoyl; C2 = Cys(PEG)240 kDa] | 7.22
* Ac-C4-C4-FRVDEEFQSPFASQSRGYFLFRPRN-CONH2 ({Ac-C(PEG 20 kDa)-C(PEG 20 kDa)}-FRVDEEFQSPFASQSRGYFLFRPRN-NH2) [NMU23, C4 = Cys(PEG)20 kDa] | 6.11
* Ac-C2FQSPFASQSRGYFLFRPRN-CONH2 ({Ac-C(PEG 40 kDa)}-FQSPFASQSRGYFLFRPRN-NH2; not fully specified; printed as Ac-C2FQSPFASQSRGYFLFRPRN-CONH2) [NMU20, C2 = Cys(PEG)240 kDa] | 6.32
